Target: SIK1 (Homo sapiens, UniProt P57059)
Sequence (P57059 whole entry): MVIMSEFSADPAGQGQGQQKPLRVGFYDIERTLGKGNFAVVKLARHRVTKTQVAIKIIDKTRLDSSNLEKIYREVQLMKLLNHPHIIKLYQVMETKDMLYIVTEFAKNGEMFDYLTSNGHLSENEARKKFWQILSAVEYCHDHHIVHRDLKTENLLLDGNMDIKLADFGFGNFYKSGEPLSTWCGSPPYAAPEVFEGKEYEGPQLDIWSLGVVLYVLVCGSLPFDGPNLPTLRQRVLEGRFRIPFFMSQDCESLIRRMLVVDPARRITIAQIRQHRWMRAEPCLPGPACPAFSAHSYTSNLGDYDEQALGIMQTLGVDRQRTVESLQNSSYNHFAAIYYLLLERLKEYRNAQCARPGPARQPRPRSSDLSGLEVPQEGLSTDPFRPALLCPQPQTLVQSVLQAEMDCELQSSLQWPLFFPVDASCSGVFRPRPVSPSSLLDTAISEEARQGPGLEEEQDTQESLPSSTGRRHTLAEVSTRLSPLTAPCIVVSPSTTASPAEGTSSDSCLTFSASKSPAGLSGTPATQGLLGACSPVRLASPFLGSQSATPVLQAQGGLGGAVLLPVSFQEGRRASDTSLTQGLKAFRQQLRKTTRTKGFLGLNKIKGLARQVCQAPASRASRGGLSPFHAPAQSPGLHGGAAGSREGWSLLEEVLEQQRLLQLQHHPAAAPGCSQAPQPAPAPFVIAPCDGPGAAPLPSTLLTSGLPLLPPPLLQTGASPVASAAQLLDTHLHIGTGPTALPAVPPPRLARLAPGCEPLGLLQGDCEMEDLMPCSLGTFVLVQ
Experiment: SIK1 kinase assay, IMAP fluorescence polarization
Format: biochemical
Conditions: 50 or 100 μM ATP; average; read-out: SIK1-AVERAGE Ki
reported-property: Ki (nM)
The answer is to be given in nM; state only the numeric part.

Form: compound = Cc1cccc(F)c1N1Cc2cnc(N)cc2N([C@H]2CCCNC2)C1=O [Example 49] ; Ki = 0.878

Form: compound = Cc1cccc(F)c1N1Cc2cnc(N)nc2N([C@H]2CCCCN(C)C2)C1=O [Example 36] ; Ki = 1.85

Form: compound = Cc1cccc(F)c1N1Cc2cnc(N)nc2N([C@H]2CCCCNC2)C1=O [Example 70] ; Ki = 0.907

Form: compound = Cc1cccc(F)c1N1Cc2cnc(N)cc2N([C@@H]2CCNC2)C1=O [Example 47] ; Ki = 2.6

Form: compound = Cc1cccc(F)c1N1Cc2cnc(N)nc2N([C@H]2CCCN(C)CC2)C1=O [Example 35] ; Ki = 1.17
